# Test system: THRa homodimer (NR concentration 90 nM)
# assayInfo: PBM binding z-score (relative to random genomic background probes); higher = stronger binding; sequences stand for … in GC…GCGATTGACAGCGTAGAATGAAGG
For each record, write down the corresponding PBM binding z-score.
Hey, just send me the number, nothing else.

Problem: So what does the record say about PBM binding z-score for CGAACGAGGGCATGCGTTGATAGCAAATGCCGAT ?
Solution: -0.0968

Problem: So what does the record say about PBM binding z-score for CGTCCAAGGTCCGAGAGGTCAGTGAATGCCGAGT ?
Solution: 1.18

Problem: So what does the record say about PBM binding z-score for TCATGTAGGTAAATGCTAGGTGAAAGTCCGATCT ?
Solution: 0.741

Problem: So what does the record say about PBM binding z-score for ATCTCGAGGTAAAGTTCAGTGAAAGATCGATAGA ?
Solution: -0.0248

Problem: So what does the record say about PBM binding z-score for TCATATAAGTAAAAGGTGAAAGTCGGTGTGGTAA ?
Solution: 0.55

Problem: So what does the record say about PBM binding z-score for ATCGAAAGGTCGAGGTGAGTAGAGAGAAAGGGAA ?
Solution: 0.626

Problem: So what does the record say about PBM binding z-score for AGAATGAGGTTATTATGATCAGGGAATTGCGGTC ?
Solution: 1.08

Problem: So what does the record say about PBM binding z-score for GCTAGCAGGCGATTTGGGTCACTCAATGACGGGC ?
Solution: 0.374

Problem: So what does the record say about PBM binding z-score for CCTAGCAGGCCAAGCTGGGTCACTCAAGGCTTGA ?
Solution: -0.143

Problem: So what does the record say about PBM binding z-score for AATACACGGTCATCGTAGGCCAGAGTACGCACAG ?
Solution: -0.0649

Problem: So what does the record say about PBM binding z-score for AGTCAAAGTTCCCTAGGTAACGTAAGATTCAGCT ?
Solution: -0.151

Problem: So what does the record say about PBM binding z-score for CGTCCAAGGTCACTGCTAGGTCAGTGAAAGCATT ?
Solution: 3.39

Problem: So what does the record say about PBM binding z-score for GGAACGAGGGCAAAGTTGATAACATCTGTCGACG ?
Solution: -0.123

Problem: So what does the record say about PBM binding z-score for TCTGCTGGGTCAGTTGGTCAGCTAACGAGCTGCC ?
Solution: -0.537

Problem: So what does the record say about PBM binding z-score for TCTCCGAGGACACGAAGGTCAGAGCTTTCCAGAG ?
Solution: 2.44

Problem: So what does the record say about PBM binding z-score for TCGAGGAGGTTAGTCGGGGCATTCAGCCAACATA ?
Solution: 0.602

Problem: So what does the record say about PBM binding z-score for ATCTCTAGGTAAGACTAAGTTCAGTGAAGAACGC ?
Solution: 0.876

Problem: So what does the record say about PBM binding z-score for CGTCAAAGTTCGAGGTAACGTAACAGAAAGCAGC ?
Solution: 0.898

Problem: So what does the record say about PBM binding z-score for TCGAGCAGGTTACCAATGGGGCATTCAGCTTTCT ?
Solution: -0.786

Problem: So what does the record say about PBM binding z-score for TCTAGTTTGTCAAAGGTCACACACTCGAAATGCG ?
Solution: 1.98

Problem: So what does the record say about PBM binding z-score for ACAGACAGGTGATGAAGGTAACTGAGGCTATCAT ?
Solution: -0.0787

Problem: So what does the record say about PBM binding z-score for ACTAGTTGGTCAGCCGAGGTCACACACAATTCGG ?
Solution: 4.33

Problem: So what does the record say about PBM binding z-score for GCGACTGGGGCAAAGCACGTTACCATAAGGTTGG ?
Solution: -0.582

Problem: So what does the record say about PBM binding z-score for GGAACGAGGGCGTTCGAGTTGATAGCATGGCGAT ?
Solution: -1.11

Problem: So what does the record say about PBM binding z-score for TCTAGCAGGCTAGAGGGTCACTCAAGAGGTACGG ?
Solution: -0.445

Problem: So what does the record say about PBM binding z-score for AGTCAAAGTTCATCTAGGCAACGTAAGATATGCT ?
Solution: -0.142

Problem: So what does the record say about PBM binding z-score for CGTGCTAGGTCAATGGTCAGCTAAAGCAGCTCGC ?
Solution: 0.655

Problem: So what does the record say about PBM binding z-score for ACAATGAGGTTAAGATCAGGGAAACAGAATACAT ?
Solution: 0.954

Problem: So what does the record say about PBM binding z-score for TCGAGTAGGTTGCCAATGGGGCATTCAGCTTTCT ?
Solution: -0.951

Problem: So what does the record say about PBM binding z-score for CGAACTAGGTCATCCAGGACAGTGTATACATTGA ?
Solution: 2.17

Problem: So what does the record say about PBM binding z-score for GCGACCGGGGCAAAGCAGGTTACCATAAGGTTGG ?
Solution: -0.0146

Problem: So what does the record say about PBM binding z-score for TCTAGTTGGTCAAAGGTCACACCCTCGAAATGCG ?
Solution: 2.2

Problem: So what does the record say about PBM binding z-score for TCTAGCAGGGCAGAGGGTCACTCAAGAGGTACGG ?
Solution: -0.329

Problem: So what does the record say about PBM binding z-score for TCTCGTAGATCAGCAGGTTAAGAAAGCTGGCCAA ?
Solution: -0.546

Problem: So what does the record say about PBM binding z-score for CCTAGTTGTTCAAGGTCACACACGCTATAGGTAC ?
Solution: 4.9

Problem: So what does the record say about PBM binding z-score for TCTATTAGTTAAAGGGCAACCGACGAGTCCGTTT ?
Solution: -0.0439

Problem: So what does the record say about PBM binding z-score for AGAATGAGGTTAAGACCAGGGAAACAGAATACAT ?
Solution: 0.691
